test: PK of bendamustine capsule formulations vs 60 min IV infusion in beagle dogs, cross over (Example 7); settings: dog, plasma
Measurement Label: Cmax

Query :: For the compound shown here, Cl.Cn1c(CCCC(=O)O)nc2cc(N(CCCl)CCCl)ccc21 , give the reported Cmax.
Result :: 4300 ng/mL

# credit: patent US20240390331A1
